# credit: paper PMC3913610

# measured.target: PI3Kα (Homo sapiens, UniProt P42336)
# Sequence (P42336 whole entry): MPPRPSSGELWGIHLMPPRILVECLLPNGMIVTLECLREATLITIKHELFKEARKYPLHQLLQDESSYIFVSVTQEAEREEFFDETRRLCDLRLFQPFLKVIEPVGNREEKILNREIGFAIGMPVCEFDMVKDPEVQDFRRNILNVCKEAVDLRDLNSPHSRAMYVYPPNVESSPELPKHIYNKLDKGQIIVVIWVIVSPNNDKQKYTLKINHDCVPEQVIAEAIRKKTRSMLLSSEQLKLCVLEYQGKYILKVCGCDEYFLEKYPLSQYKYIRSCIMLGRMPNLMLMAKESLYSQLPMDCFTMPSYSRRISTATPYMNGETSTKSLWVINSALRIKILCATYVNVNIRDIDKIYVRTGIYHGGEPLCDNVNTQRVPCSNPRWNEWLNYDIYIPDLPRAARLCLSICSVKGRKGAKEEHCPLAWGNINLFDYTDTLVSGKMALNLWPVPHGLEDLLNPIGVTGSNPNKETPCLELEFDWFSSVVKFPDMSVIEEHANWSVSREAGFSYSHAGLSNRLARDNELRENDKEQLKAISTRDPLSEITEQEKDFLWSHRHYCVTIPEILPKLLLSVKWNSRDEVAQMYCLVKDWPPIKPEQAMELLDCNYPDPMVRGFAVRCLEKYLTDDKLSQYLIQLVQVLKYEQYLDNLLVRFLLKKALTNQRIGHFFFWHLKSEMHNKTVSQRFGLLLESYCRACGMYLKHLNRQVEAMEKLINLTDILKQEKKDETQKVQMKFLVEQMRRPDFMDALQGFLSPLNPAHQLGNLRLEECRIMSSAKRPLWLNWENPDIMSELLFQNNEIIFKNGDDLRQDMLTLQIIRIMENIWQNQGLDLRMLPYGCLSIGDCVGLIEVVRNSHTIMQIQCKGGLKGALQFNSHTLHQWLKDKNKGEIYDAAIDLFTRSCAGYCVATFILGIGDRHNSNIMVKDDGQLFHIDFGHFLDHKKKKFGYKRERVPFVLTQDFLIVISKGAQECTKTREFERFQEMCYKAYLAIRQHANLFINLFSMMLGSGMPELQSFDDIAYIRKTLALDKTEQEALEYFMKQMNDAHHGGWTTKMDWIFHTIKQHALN
# Sequence (P27986 whole entry partner): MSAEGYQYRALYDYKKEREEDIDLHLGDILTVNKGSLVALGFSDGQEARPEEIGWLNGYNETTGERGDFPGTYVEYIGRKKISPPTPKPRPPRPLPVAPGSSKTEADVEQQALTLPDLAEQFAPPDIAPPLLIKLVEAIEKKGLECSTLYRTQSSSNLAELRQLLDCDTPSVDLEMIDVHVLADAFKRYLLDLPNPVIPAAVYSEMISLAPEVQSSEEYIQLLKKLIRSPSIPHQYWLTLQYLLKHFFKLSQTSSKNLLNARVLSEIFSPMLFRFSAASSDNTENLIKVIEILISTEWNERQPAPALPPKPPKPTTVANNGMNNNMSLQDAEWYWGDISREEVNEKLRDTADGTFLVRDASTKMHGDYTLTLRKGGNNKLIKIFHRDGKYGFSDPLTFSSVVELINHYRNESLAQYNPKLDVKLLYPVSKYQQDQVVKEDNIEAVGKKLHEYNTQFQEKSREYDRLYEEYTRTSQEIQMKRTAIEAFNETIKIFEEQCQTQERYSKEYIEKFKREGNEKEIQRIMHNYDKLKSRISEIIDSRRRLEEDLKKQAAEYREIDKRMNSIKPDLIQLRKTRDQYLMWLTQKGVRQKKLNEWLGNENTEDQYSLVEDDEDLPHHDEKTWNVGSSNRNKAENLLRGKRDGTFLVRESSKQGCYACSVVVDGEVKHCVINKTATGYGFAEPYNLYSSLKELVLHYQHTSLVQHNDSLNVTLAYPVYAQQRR
assay.metric: IC50 (µM)
Express the result in µM but write the number alone.

Request: Fetch value of IC50 on PI3Kα (Homo sapiens, UniProt P42336) for CC(=O)N1CCN(c2nc3c(N4CCOCC4)nc(-c4cnc(N)nc4)nc3n2CC(F)(F)F)C[C@H]1C .
Response: 0.0156

* * *

# measured.target: PI3Kγ (Homo sapiens, UniProt P48736)
# Sequence (P48736 whole entry): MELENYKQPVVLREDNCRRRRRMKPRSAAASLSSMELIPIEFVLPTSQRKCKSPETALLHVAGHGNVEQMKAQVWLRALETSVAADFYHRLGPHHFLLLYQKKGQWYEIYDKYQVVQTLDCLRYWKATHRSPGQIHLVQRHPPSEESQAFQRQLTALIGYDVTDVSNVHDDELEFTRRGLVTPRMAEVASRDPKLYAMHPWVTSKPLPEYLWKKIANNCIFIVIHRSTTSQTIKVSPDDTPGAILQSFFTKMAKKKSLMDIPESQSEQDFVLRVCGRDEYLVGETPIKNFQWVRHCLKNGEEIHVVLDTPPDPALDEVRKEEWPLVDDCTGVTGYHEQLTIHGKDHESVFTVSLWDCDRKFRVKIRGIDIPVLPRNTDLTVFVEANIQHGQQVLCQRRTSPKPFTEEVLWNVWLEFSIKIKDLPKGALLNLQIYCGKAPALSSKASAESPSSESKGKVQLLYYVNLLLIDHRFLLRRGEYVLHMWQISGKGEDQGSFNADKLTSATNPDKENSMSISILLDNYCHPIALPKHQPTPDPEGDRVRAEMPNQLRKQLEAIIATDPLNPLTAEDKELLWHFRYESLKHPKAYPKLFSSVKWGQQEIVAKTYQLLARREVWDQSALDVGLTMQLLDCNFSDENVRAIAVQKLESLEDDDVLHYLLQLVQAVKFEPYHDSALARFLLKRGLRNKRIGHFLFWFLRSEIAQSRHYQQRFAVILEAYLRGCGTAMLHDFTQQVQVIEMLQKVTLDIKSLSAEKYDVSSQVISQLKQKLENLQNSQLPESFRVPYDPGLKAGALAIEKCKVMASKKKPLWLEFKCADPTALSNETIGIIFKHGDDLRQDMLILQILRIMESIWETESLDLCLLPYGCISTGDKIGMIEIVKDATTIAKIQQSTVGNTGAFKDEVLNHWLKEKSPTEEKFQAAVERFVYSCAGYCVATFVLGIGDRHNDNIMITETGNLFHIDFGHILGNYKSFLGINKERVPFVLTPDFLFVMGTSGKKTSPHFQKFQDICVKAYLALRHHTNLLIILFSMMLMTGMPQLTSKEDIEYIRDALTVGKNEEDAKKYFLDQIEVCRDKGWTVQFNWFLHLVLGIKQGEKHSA
assay.metric: pIC50
# reply with the number alone; pIC50 is -log10 of concentration in mol/L

Request: Consider the compound CC(=O)N1CCN(c2nc3c(N4CCOCC4)nc(-c4cnc(N)nc4)nc3n2CC(F)(F)F)C[C@H]1C tested on PI3Kγ (Homo sapiens, UniProt P48736); state its pIC50.
Response: 6.60
